Assay: chemical genetic growth profiling, strain panel (AID 1159580);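 further: tested at 20 µM; growth read once vehicle control cultures reached saturation at 30 °C; 1 = growth at the plate median or of vehicle wells; lower values mean less growth of the strain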
Details: S. cerevisiae deletion strains, growth OD, locus YPR135W, strain CTF4, active compounds read low
Screen size: about 5,500 compounds; about 2,000 (36%) were called active. Inconclusive results (about 18%) are left out. This is one part of the list.
# Lookup of reported normalized growth keyed by entry
result_type: normalized growth

1. c1ccc(N=Nc2ccc(Nc3ccccc3)cc2)cc1 : 0.748
2. CN(C)c1ccc(C(=O)NN)cc1 : 1
3. COc1ccc(OC)c(S(=O)(=O)Nc2ccc(C#N)cc2)c1 : 0.951
4. CCC(=O)Nc1cc(F)ccc1C : 0.987
5. O=C1c2cccc3cc([N+](=O)[O-])cc(c23)C(=O)N1CCO : 0.89
6. Cc1ccc(OS(=O)(=O)c2ccc(C#N)cc2)c(Br)c1 : 0.628
7. Cc1ccc(NC(=S)NNC(C)(C)C)cc1 : 0.646
8. COc1ccc(NC(=O)c2cc(C(F)(F)F)cc(C(F)(F)F)c2)cn1 : 0.611
9. CCO/C=C1\SC(=S)N(CCc2ccccc2)C1=O : 0.305
10. COc1ccc(S(=O)(=O)Nc2ccccc2Oc2ccc(Cl)cc2Cl)cc1OC : 1.03
11. COc1ccc(CN2C(=O)CSC2c2ccccn2)cc1 (stereo not given) : 0.985
12. CCOC(=O)C(=CNNC(=O)c1ccccc1-n1cccc1)C(=O)OCC : 1.04
13. COc1ccc(C2=C(C(C)=O)C(C)=NC(=S)C2C#N)cc1 (stereo not given) : 0.356
14. CCOc1ccc(/C=C(\C#N)c2cccc(Cl)c2)cc1 : 0.987
15. CCOC(=O)c1[nH]c(Cc2[nH]c(C(=O)OCC)c(C)c2C)c(C)c1C : 1.08
